Assay: qHTS Assay for Lipid Storage Modulators in Drosophila S3 Cells
Conditions: BODIPY lipid droplet fluorescence, 18-24 h, cells fed with added oleic acid; series mostly up to 46.1 µM
Among all 320,000 compounds or so, about 2,100 (0.66%) were called active. Not shown: some 53% with an inconclusive outcome. Calls follow the shape of the dose curve; as a rule, active = well fitted inhibition curve with a large enough effect in the signal ratio, with a control signal flat (not every such curve was filed as active); inconclusive = small, poorly fitted or top-dose-only effect, or effect the other way, or a change in a side signal; inactive = flat fitted curve, though single readings scatter; the % refers to the signal ratio. Only a selection was taken, and actives are over-represented in it overall.
Outcomes: label 1 for active, label 0 for inactive

[
  {
    "COMPOUND": "COc1cc(C2NC(=O)NC(C)=C2C(=O)OC(C)(C)C)ccc1OCC(N)=O (configuration not stated)",
    "ASSIGNED_LABEL": "label 0"
  },
  {
    "COMPOUND": "Cc1onc(-c2ccccc2)c1C(=O)Nc1ccncc1",
    "ASSIGNED_LABEL": "label 0"
  },
  {
    "COMPOUND": "CN(C(=O)c1ccc(NC(=O)C2CC=CCC2C(=O)O)cc1)c1ccccc1 (configuration not stated)",
    "ASSIGNED_LABEL": "label 0"
  },
  {
    "COMPOUND": "O=C(Nc1ccc(S(=O)(=O)N2CCc3ccccc32)cc1)C(F)(F)F",
    "ASSIGNED_LABEL": "label 0"
  },
  {
    "COMPOUND": "CCSc1nnc2c(n1)[nH]c1c(C)cccc12",
    "ASSIGNED_LABEL": "label 1"
  },
  {
    "COMPOUND": "O=C(O)C1C2C=CC(O2)C1C(=O)Nc1ccc(S(=O)(=O)N2CCc3ccccc32)cc1 (configuration not stated)",
    "ASSIGNED_LABEL": "label 0"
  },
  {
    "COMPOUND": "COC(=O)CC1NCCNC1=O (configuration not stated)",
    "ASSIGNED_LABEL": "label 1"
  },
  {
    "COMPOUND": "CN(CCCNC(=O)COc1cc(=O)n(C)c2ccccc12)Cc1ccccc1",
    "ASSIGNED_LABEL": "label 0"
  },
  {
    "COMPOUND": "COc1cc(NC(=O)CC2NCCNC2=O)cc(OC)c1 (configuration not stated)",
    "ASSIGNED_LABEL": "label 0"
  },
  {
    "COMPOUND": "CCOC(=O)CSc1nc2ccccc2c(=O)n1CC1CCCO1 (configuration not stated)",
    "ASSIGNED_LABEL": "label 0"
  },
  {
    "COMPOUND": "CN(C)C(=O)c1cc(C(=O)c2c(F)cccc2F)c[nH]1",
    "ASSIGNED_LABEL": "label 0"
  },
  {
    "COMPOUND": "CC1=C(C(=O)OC(C)(C)C)C(c2cccs2)NC(=O)N1 (configuration not stated)",
    "ASSIGNED_LABEL": "label 0"
  }
]

---

Experiment: qHTS Assay for Lipid Storage Modulators in Drosophila S3 Cells; also: potency is read from the fitted curve at half-maximal effect
Settings: BODIPY lipid droplet fluorescence, 18-24 h, cells fed with added oleic acid; series mostly up to 46.1 µM
About 2,100 (0.66%) of roughly 320,000 compounds were called active. About 53% were inconclusive and are not listed. The sample as a whole holds a higher share of actives than the screen did.

[
  {
    "COMPOUND": "CCOCCCNC(=O)C(Cc1ccccc1)NC(=O)c1ccco1 (stereo unspecified)",
    "Potency": "13 µM (active)"
  },
  {
    "COMPOUND": "Cc1ccc(CNC(=O)[C@H](Cc2ccccc2)NC(=O)c2ccco2)cc1",
    "Potency": "inactive"
  },
  {
    "COMPOUND": "CCOCCCNC(=O)c1c(-c2ccccc2)noc1C",
    "Potency": "20.6 µM (active)"
  },
  {
    "COMPOUND": "CCOC(=O)c1sc(NC(=O)c2cccs2)nc1C",
    "Potency": "inactive"
  },
  {
    "COMPOUND": "CN1CCN(S(=O)(=O)c2ccc(Nc3cccc(Cl)c3)c([N+](=O)[O-])c2)CC1",
    "Potency": "inactive"
  },
  {
    "COMPOUND": "Cc1[nH]c2ccccc2c1/C=N/NC(=O)C1CC1(c1ccccc1)c1ccccc1 (stereo unspecified)",
    "Potency": "inactive"
  },
  {
    "COMPOUND": "CCC(C)(C)NC(=O)CN(C(=O)C(=O)Nc1ccc2c(c1)OCCO2)C1CC1",
    "Potency": "1.16 µM (active)"
  },
  {
    "COMPOUND": "CCOC(=O)c1cc(-c2ccc(OC)cc2)n(CCC(=O)NC2CCN(Cc3ccccc3)CC2)c1C",
    "Potency": "inactive"
  },
  {
    "COMPOUND": "COC(=O)C1(C(F)(F)F)N=C(C(F)(F)F)Nc2ccc(Cl)cc21 (stereo unspecified)",
    "Potency": "inactive"
  },
  {
    "COMPOUND": "COCCCNC(=O)c1c(-c2ccccc2)noc1C",
    "Potency": "inactive"
  },
  {
    "COMPOUND": "CCC(C)(C)NC(=O)CN(Cc1cccs1)C(=O)C(=O)Nc1ccc2c(c1)OCCO2",
    "Potency": "inactive"
  }
]

---

Test: qHTS Assay for Lipid Storage Modulators in Drosophila S3 Cells
Details: BODIPY lipid droplet fluorescence, 18-24 h, cells fed with added oleic acid; series mostly up to 46.1 µM
Among all 320,000 compounds or so, about 2,100 (0.66%) were called active. Inconclusive results (about 53%) are left out. The call rests on the fitted dose curve; in most records, active means well fitted inhibition curve with a large enough effect in the signal ratio, with a control signal flat (not every such curve was filed as active); inconclusive means small, poorly fitted or top-dose-only effect, or effect the other way, or a change in a side signal; inactive means flat fitted curve, though single readings scatter; the % refers to the signal ratio. The full list was thinned out, with actives kept by preference.
Outcomes: Y for active, N for inactive

[
  {
    "MOLECULE": "COc1ccc(C(=O)NC(C)C2CC3CCC2C3)c(OC)c1 (stereo unspecified)",
    "ASSIGNED_LABEL": "N"
  },
  {
    "MOLECULE": "Cc1ccsc1/C=C/c1n[nH]c(=O)c(C#N)c1C",
    "ASSIGNED_LABEL": "N"
  },
  {
    "MOLECULE": "COc1cc(/C=C/C(=O)NC2CCCCC2)cc(OC)c1OC",
    "ASSIGNED_LABEL": "N"
  },
  {
    "MOLECULE": "O=C(c1cc(-c2ccc3c(c2)OCO3)on1)N1CCN(c2ccc(F)cc2)CC1",
    "ASSIGNED_LABEL": "N"
  },
  {
    "MOLECULE": "COc1ccccc1N1CCN(C(=O)c2c(C)cc(=O)oc2C)CC1",
    "ASSIGNED_LABEL": "N"
  },
  {
    "MOLECULE": "Cc1ccc(CSc2nc3ccccc3c(=O)n2C)cc1",
    "ASSIGNED_LABEL": "Y"
  },
  {
    "MOLECULE": "O=C(c1cc(-c2ccc(Cl)cc2)on1)N1CCN(c2ccc(F)cc2)CC1",
    "ASSIGNED_LABEL": "Y"
  },
  {
    "MOLECULE": "O=C(c1ccc(N2CCN(C(=O)c3ccccc3)CC2)cc1)c1cccc(F)c1",
    "ASSIGNED_LABEL": "Y"
  },
  {
    "MOLECULE": "Cc1cc(=O)oc(C)c1C(=O)N1CCN(c2ccc(F)cc2)CC1",
    "ASSIGNED_LABEL": "Y"
  },
  {
    "MOLECULE": "O=C(c1ccc(N2CCN(C(=O)c3ccccc3Br)CC2)cc1)c1cccc(F)c1",
    "ASSIGNED_LABEL": "N"
  },
  {
    "MOLECULE": "COc1cc(/C=C/C(=O)NC(C)C2CC3CCC2C3)cc(OC)c1OC (stereo unspecified)",
    "ASSIGNED_LABEL": "Y"
  }
]
